The following compounds are shown together with reported ΔTm values.
Molecular target: Bromodomain-containing protein 7 (Homo sapiens) (UniProt Q9NPI1)
Sequence (whole entry): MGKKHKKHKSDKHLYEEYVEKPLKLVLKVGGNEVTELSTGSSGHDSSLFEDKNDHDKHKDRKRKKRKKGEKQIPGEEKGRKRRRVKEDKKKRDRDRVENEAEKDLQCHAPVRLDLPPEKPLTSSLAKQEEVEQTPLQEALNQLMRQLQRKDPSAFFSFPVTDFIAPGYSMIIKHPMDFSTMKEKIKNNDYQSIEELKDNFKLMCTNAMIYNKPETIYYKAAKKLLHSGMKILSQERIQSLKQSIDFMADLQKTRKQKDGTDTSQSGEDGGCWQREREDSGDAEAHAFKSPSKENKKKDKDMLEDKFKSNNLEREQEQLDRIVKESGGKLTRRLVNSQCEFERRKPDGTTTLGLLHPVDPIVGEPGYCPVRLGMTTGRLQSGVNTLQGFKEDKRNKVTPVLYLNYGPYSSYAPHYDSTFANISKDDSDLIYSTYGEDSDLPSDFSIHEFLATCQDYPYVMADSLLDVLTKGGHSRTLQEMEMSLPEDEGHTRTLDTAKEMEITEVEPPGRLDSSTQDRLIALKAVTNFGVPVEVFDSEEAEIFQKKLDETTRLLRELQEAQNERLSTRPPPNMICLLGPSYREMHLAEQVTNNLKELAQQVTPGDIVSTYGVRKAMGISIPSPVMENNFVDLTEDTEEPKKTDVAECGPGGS
Test: Binding affinity to His6-fused BRD7 (unknown origin) assessed as change in melting temperature at 100 uM incubated for 30 mins by thermal shift assay
Quantity name: ΔTm (°C)

Structure notation: Cc1cc(F)cc(C)c1Oc1ccc(C(C)(C)O)cc1-c1cn(C)c(=O)c2cc(-c3cnc(C4CC4)[nH]3)oc12
Unit name: °C
Obs value: 0
//
Structure notation: Cc1cc(F)cc(C)c1Oc1ccc(C(C)(C)O)cc1-c1cn(C)c(=O)c2cc(-c3cnc(C4CCCCC4)[nH]3)oc12
Unit name: °C
Obs value: 0.25
//
Structure notation: Cc1cc(F)cc(C)c1Oc1ccc(C(C)(C)O)cc1-c1cn(C)c(=O)c2cc(-c3cnc(C4CCC4)[nH]3)oc12
Unit name: °C
Obs value: 0.25
//
Structure notation: Cc1cc(F)cc(C)c1Oc1ccc(C(C)(C)O)cc1-c1cn(C)c(=O)c2cc(-c3cnc(C4CCCC4)[nH]3)oc12
Unit name: °C
Obs value: 0.25

* * *

Target: Peregrin (Homo sapiens)
Test: Binding affinity to BRPF1 (unknown origin) assessed as change in melting temperature at 100 uM incubated for 30 mins by thermal shift assay
Recorded ΔTm, one value per entry.
Quantity name: ΔTm (°C)

Structure notation: Cc1cc(F)cc(C)c1Oc1ccc(C(C)(C)O)cc1-c1cn(C)c(=O)c2cc(-c3cnc(C4CCC4)[nH]3)oc12
Obs value: -1.5
//
Structure notation: Cc1cc(F)cc(C)c1Oc1ccc(C(C)(C)O)cc1-c1cn(C)c(=O)c2cc(-c3cnc(C4CC4)[nH]3)oc12
Obs value: -2
//
Structure notation: Cc1cc(F)cc(C)c1Oc1ccc(C(C)(C)O)cc1-c1cn(C)c(=O)c2cc(-c3cnc(C4CCCCC4)[nH]3)oc12
Obs value: -1.25
//
Structure notation: Cc1cc(F)cc(C)c1Oc1ccc(C(C)(C)O)cc1-c1cn(C)c(=O)c2cc(-c3cnc(C4CCCC4)[nH]3)oc12
Obs value: -1.5
